# Conditions: 373 K; 101.33 kPa; Liquid; Falling or rolling sphere viscometry
± gives the expanded uncertainty stated by the source.
Listing of recorded viscosity by entry.

Test smiles	Assay value
CCCn1cc[n+](C)c1.O=S(=O)([N-]S(=O)(=O)C(F)(F)F)C(F)(F)F	6.32 ± 0.33 mPa·s
CCCCCC[n+]1ccn(C)c1.O=S(=O)([N-]S(=O)(=O)C(F)(F)F)C(F)(F)F	7.46 ± 0.38 mPa·s
CCCCCCCCCCn1cc[n+](C)c1.O=S(=O)([N-]S(=O)(=O)C(F)(F)F)C(F)(F)F	10 ± 0.51 mPa·s

Tell us which viscosity value is on record for CCCCCn1cc[n+](C)c1.O=S(=O)([N-]S(=O)(=O)C(F)(F)F)C(F)(F)F 7.19 ± 0.36 mPa·s

Tell us which viscosity value is on record for CCCC[n+]1ccn(C)c1.O=S(=O)([N-]S(=O)(=O)C(F)(F)F)C(F)(F)F 6.548 ± 0.33 mPa·s
